Value source: patent US20160339026A1

Overview of reported EC50 Ratio (WS-3) across a group of compounds:
- measured_on: hTRPM8 (Homo sapiens, UniProt Q7Z2W7)
- Construct: expressed in transfected cells
- Sequence (Q7Z2W7 whole entry): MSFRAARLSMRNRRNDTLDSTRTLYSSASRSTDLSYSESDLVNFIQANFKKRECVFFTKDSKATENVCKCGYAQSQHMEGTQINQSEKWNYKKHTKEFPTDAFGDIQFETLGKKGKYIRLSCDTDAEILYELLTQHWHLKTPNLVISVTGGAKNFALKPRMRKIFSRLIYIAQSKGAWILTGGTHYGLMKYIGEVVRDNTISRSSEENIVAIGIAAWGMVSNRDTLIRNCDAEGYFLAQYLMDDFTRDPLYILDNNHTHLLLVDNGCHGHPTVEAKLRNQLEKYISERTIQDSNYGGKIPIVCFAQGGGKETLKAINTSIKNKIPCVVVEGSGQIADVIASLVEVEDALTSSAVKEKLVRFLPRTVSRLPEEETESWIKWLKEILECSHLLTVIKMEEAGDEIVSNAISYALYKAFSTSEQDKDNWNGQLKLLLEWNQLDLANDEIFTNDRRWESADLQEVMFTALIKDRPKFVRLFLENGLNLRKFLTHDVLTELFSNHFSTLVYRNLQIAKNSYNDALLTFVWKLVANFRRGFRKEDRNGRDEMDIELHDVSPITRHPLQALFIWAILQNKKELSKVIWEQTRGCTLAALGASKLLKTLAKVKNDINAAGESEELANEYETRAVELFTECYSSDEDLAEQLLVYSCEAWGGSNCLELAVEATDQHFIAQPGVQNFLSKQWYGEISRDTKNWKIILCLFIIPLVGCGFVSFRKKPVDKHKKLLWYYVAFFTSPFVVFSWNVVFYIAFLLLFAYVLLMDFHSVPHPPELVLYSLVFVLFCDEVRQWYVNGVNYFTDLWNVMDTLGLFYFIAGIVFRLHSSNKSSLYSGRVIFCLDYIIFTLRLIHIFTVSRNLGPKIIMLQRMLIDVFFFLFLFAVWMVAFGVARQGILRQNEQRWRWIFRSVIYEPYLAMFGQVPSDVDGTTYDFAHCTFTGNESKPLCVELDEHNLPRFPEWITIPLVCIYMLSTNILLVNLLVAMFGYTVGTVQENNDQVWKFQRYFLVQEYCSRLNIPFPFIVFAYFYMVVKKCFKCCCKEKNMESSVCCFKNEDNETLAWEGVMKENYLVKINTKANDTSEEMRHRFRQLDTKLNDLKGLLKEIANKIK
- assay_details: Cell line stably expressing hTRPM8, agonist assay, compounds of Formula (I)
- Format: cell-based
- condition_label: Table 1.7
measure: EC50 Ratio (WS-3)

>>> print(df.to_string())
                                   compound  numeric_result
0  CCN(Cc1ccccc1)C(=O)COc1ccccc1 [drawing 56 R=H R1=Ethyl Ar=Phenyl]             0.5
1  Cc1ccc(OCC(=O)N(Cc2ccccc2)c2ccccn2)cc1 [drawing 56 R=4-Me R1=2-Pyridyl Ar=Phenyl]             0.6
2  CCN(Cc1ccccc1)C(=O)COc1ccc(C)cc1 [drawing 56 R=4-Me R1=Ethyl Ar=Phenyl]             4.2
3  O=C(COc1ccc(Br)cc1)N(Cc1ccccc1)c1ccccn1 [drawing 56 R=4-Br R1=2-Pyridyl Ar=Phenyl]             0.2
